System: L-363 (Plasma Cell Myeloma);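 also: after 72 h of two-drug dosing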
assay-text: Bliss excess, mean over the matrix (fraction); higher = more synergy
Recorded Bliss excess by entry

>  <compound>
CN(CCO)CC[C@H](CSc1ccccc1)Nc1ccc(S(=O)(=O)NC(=O)c2ccc(N3CCC([C@@H](O)c4ccccc4-c4ccc(Cl)cc4)CC3)cc2)cc1S(=O)(=O)C(F)(F)F [AZD4320] + CC(=O)O[C@H]1C(=O)[C@@]2(C)[C@H]([C@H](OC(=O)c3ccccc3)[C@]3(O)C[C@H](OC(=O)[C@H](O)[C@@H](NC(=O)c4ccccc4)c4ccccc4)C(C)=C1C3(C)C)[C@]1(OC(C)=O)CO[C@@H]1C[C@@H]2O [Paclitaxel] (first compound max 1 µM, 7x7, partner max 3 µM)

>  <Bliss excess>
-0.0131

$$$$
>  <compound>
CC1(C)CCC(CN2CCN(c3ccc(C(=O)NS(=O)(=O)c4ccc(NCC5CCOCC5)c([N+](=O)[O-])c4)c(Oc4cnc5[nH]ccc5c4)c3)CC2)=C(c2ccc(Cl)cc2)C1 [Venetoclax] + CCN(CCO)CCCOc1ccc2c(Nc3cc(CC(=O)Nc4cccc(F)c4)[nH]n3)ncnc2c1 [AZD2811] (first compound max 1 µM, 7x7, partner max 1 µM)

>  <Bliss excess>
0.0141

$$$$
>  <compound>
COc1nnc2ccc(N3CCC(c4ccc(OCCN5CCN(C)C(=O)[C@H]5C)cc4)CC3)nn12 [AZD5153] + C=CCn1c(=O)c2cnc(Nc3ccc(N4CCN(C)CC4)cc3)nc2n1-c1cccc(C(C)(C)O)n1 [AZD1775] (first compound max 1 µM, partner max 1 µM)

>  <Bliss excess>
-0.0546

$$$$
